Assay: Hygroscopicity by dynamic vapor sorption (DVS)
Assay type: physicochemical
Settings: DVS, 25° C., about 10 mg of sample
Mark True only when Weight Gain under 80% Relative Humidity stays strictly below 0.2%. Values equal to the cut-off are False.

- COMPOUND: "COc1cc(OC)c2c(=O)[nH]c(-c3cc(C)c(OCCO)c(C)c3)nc2c1 [Form CS8]"
  CATEGORY LABEL: "False"
- COMPOUND: "COc1cc(OC)c2c(=O)[nH]c(-c3cc(C)c(OCCO)c(C)c3)nc2c1 [Form CS4]"
  CATEGORY LABEL: "True"
- COMPOUND: "COc1cc(OC)c2c(=O)[nH]c(-c3cc(C)c(OCCO)c(C)c3)nc2c1 [Form CS1]"
  CATEGORY LABEL: "True"
- COMPOUND: "COc1cc(OC)c2c(=O)[nH]c(-c3cc(C)c(OCCO)c(C)c3)nc2c1 [Form CS9]"
  CATEGORY LABEL: "True"
- COMPOUND: "COc1cc(OC)c2c(=O)[nH]c(-c3cc(C)c(OCCO)c(C)c3)nc2c1 [Form CS7]"
  CATEGORY LABEL: "False"

====

A collection of molecules and their measured Solubility FeSSIF
Assay: Solubility study: saturated solutions in SGF and FeSSIF, concentration by HPLC
Format: physicochemical
Details: FeSSIF (fed state simulated intestinal fluids, pH=5.0), equilibrated 24 h
OBSERVABLE: Solubility FeSSIF (µg/mL)

- MOLECULE: "COc1cc(OC)c2c(=O)[nH]c(-c3cc(C)c(OCCO)c(C)c3)nc2c1 [Form CS13]"
  OBSERVABLE: "Solubility FeSSIF"
  MEASUREMENT: 140
- MOLECULE: "COc1cc(OC)c2c(=O)[nH]c(-c3cc(C)c(OCCO)c(C)c3)nc2c1 [Form CS1]"
  OBSERVABLE: "Solubility FeSSIF"
  MEASUREMENT: 140
- MOLECULE: "COc1cc(OC)c2c(=O)[nH]c(-c3cc(C)c(OCCO)c(C)c3)nc2c1 [Form CS7]"
  OBSERVABLE: "Solubility FeSSIF"
  MEASUREMENT: 290
- MOLECULE: "COc1cc(OC)c2c(=O)[nH]c(-c3cc(C)c(OCCO)c(C)c3)nc2c1 [Form CS4]"
  OBSERVABLE: "Solubility FeSSIF"
  MEASUREMENT: 160
- MOLECULE: "COc1cc(OC)c2c(=O)[nH]c(-c3cc(C)c(OCCO)c(C)c3)nc2c1 [Form CS20]"
  OBSERVABLE: "Solubility FeSSIF"
  MEASUREMENT: 220
- MOLECULE: "COc1cc(OC)c2c(=O)[nH]c(-c3cc(C)c(OCCO)c(C)c3)nc2c1 [Form CS9]"
  OBSERVABLE: "Solubility FeSSIF"
  MEASUREMENT: 200
- MOLECULE: "COc1cc(OC)c2c(=O)[nH]c(-c3cc(C)c(OCCO)c(C)c3)nc2c1 [Form CS2]"
  OBSERVABLE: "Solubility FeSSIF"
  MEASUREMENT: 240

====

Assay: Solubility study: saturated solutions in SGF and FeSSIF, concentration by HPLC
Format: physicochemical
Conditions: FeSSIF (fed state simulated intestinal fluids, pH=5.0), equilibrated 4 h
Each entry below lists one item and its recorded Solubility FeSSIF value.
OBSERVABLE: Solubility FeSSIF (µg/mL)

- MOLECULE: "COc1cc(OC)c2c(=O)[nH]c(-c3cc(C)c(OCCO)c(C)c3)nc2c1 [Form CS1]"
  OBSERVABLE: "Solubility FeSSIF"
  MEASUREMENT: 110
- MOLECULE: "COc1cc(OC)c2c(=O)[nH]c(-c3cc(C)c(OCCO)c(C)c3)nc2c1 [Form CS13]"
  OBSERVABLE: "Solubility FeSSIF"
  MEASUREMENT: 140
- MOLECULE: "COc1cc(OC)c2c(=O)[nH]c(-c3cc(C)c(OCCO)c(C)c3)nc2c1 [Form CS20]"
  OBSERVABLE: "Solubility FeSSIF"
  MEASUREMENT: 160
- MOLECULE: "COc1cc(OC)c2c(=O)[nH]c(-c3cc(C)c(OCCO)c(C)c3)nc2c1 [Form CS7]"
  OBSERVABLE: "Solubility FeSSIF"
  MEASUREMENT: 170
- MOLECULE: "COc1cc(OC)c2c(=O)[nH]c(-c3cc(C)c(OCCO)c(C)c3)nc2c1 [Form CS9]"
  OBSERVABLE: "Solubility FeSSIF"
  MEASUREMENT: 130
- MOLECULE: "COc1cc(OC)c2c(=O)[nH]c(-c3cc(C)c(OCCO)c(C)c3)nc2c1 [Form CS4]"
  OBSERVABLE: "Solubility FeSSIF"
  MEASUREMENT: 100

====

Assay: Hygroscopicity by dynamic vapor sorption (DVS)
Format: physicochemical
Conditions: Chinese Pharmacopoeia 2015 criteria, 25° C., 80% RH

- COMPOUND: "COc1cc(OC)c2c(=O)[nH]c(-c3cc(C)c(OCCO)c(C)c3)nc2c1 [Form CS9]"
  Hygroscopicity class: "almost non hygroscopic"
- COMPOUND: "COc1cc(OC)c2c(=O)[nH]c(-c3cc(C)c(OCCO)c(C)c3)nc2c1 [Form CS4]"
  Hygroscopicity class: "almost non hygroscopic"
- COMPOUND: "COc1cc(OC)c2c(=O)[nH]c(-c3cc(C)c(OCCO)c(C)c3)nc2c1 [Form CS1]"
  Hygroscopicity class: "almost non hygroscopic"

====

As shown below, each of these compounds has a reported Solubility SGF value.
Test: Solubility study: saturated solutions in SGF and FeSSIF, concentration by HPLC
Type: physicochemical
Details: SGF (simulated gastric fluids), equilibrated 1 h
OBSERVABLE: Solubility SGF

- COMPOUND: "COc1cc(OC)c2c(=O)[nH]c(-c3cc(C)c(OCCO)c(C)c3)nc2c1 [Form CS7]"
  MEASUREMENT: "380 µg/mL"
- COMPOUND: "COc1cc(OC)c2c(=O)[nH]c(-c3cc(C)c(OCCO)c(C)c3)nc2c1 [Form CS2]"
  MEASUREMENT: "490 µg/mL"
- COMPOUND: "COc1cc(OC)c2c(=O)[nH]c(-c3cc(C)c(OCCO)c(C)c3)nc2c1 [Form CS13]"
  MEASUREMENT: "350 µg/mL"
- COMPOUND: "COc1cc(OC)c2c(=O)[nH]c(-c3cc(C)c(OCCO)c(C)c3)nc2c1 [Form CS11]"
  MEASUREMENT: "710 µg/mL"
- COMPOUND: "COc1cc(OC)c2c(=O)[nH]c(-c3cc(C)c(OCCO)c(C)c3)nc2c1 [Form CS1]"
  MEASUREMENT: "310 µg/mL"
- COMPOUND: "COc1cc(OC)c2c(=O)[nH]c(-c3cc(C)c(OCCO)c(C)c3)nc2c1 [Form CS8]"
  MEASUREMENT: "430 µg/mL"
- COMPOUND: "COc1cc(OC)c2c(=O)[nH]c(-c3cc(C)c(OCCO)c(C)c3)nc2c1 [Form CS9]"
  MEASUREMENT: "300 µg/mL"
- COMPOUND: "COc1cc(OC)c2c(=O)[nH]c(-c3cc(C)c(OCCO)c(C)c3)nc2c1 [Form CS4]"
  MEASUREMENT: "300 µg/mL"
- COMPOUND: "COc1cc(OC)c2c(=O)[nH]c(-c3cc(C)c(OCCO)c(C)c3)nc2c1 [Form CS20]"
  MEASUREMENT: "440 µg/mL"

====

Assay: Stability study: open-dish storage in constant temperature and humidity chambers, XRPD and purity check
Type: physicochemical
Details: 40° C./75% RH

- COMPOUND: "COc1cc(OC)c2c(=O)[nH]c(-c3cc(C)c(OCCO)c(C)c3)nc2c1 [Form CS4]"
  Time the form is stable when stored: "at least 10 months"
- COMPOUND: "COc1cc(OC)c2c(=O)[nH]c(-c3cc(C)c(OCCO)c(C)c3)nc2c1 [Form CS9]"
  Time the form is stable when stored: "at least 10 months"
- COMPOUND: "COc1cc(OC)c2c(=O)[nH]c(-c3cc(C)c(OCCO)c(C)c3)nc2c1 [Form CS1]"
  Time the form is stable when stored: "at least 10 months"
